Where do the numbers come from? From patent US20070117743A1.

System: SK-BR-3
assayRemarks: SRB colorimetric assay of cell growth and viability, SK-BR-3
Assay type: cell-based, human
setupConditions: 48 hours exposure
Where a SMILES comes first, the peptide text is derived from it. Bridges are numbered along the chain shown (N, C = ends). [ ]: non-standard residue; d: D form. The star is where a group is joined. d(aThr) = C[C@@H](O)[C@@H](N)C(=O)O; Hexanoyl(5-Me) = CC(C)CCCC(=O)*; dCha = N[C@H](CC1CCCCC1)C(=O)O; Orn = NCCC[C@H](N)C(=O)O; Dhb = C/C=C(\N)C(=O)O
Reported LC50 values follow for various compounds

compound	u	LC50
C/C=C1\NC(=O)[C@H](Cc2ccccc2)NC(=O)[C@@H](CC2CCCCC2)NC(=O)[C@@H](CC2CCCCC2)NC(=O)[C@H](NC(=O)[C@@H](CC2CCCCC2)NC(=O)[C@H](CCCN)NC(=O)[C@H]2CCCN2C(=O)[C@H](NC(=O)[C@@H](NC(=O)[C@@H](NC(=O)[C@H](NC(=O)CCCC(C)C)C(C)C)[C@@H](C)O)C(C)C)C(C)C)[C@@H](C)OC(=O)[C@H](C(C)C)NC1=O [Compound 11, [D-Cha^4, D-Cha^5, D-Cha^7]-KF] ({Hexanoyl(5-Me)}-[dV]TV[dV][dP][Orn][dCha][d(aThr)][dCha][dCha]F[Dhb]V; ester 8-C)	µM	0.599
C/C=C1\NC(=O)[C@H](Cc2ccccc2)NC(=O)[C@@H](C(C)C)NC(=O)[C@@H]([C@@H](C)CC)NC(=O)[C@H](NC(=O)[C@H](NC(=O)[C@H](CCCN)NC(=O)[C@H]2CCCN2C(=O)[C@H](NC(=O)[C@H](NC(=O)[C@@H](NC(=O)[C@H](NC(=O)CCCC(C)C)C(C)C)[C@@H](C)O)C(C)C)C(C)C)[C@@H](C)CC)[C@@H](C)OC(=O)[C@H](C(C)C)NC1=O [Compound 46, [D-Val^11]-KF]	µM	5.62

----------
Reported LC50 (concentration causing 50% net cell killing) values follow for various compounds
Tested on: IGROV-1
assayRemarks: SRB colorimetric assay of cell growth and viability, IGROV-1
Type: cell-based, human
setupConditions: IGROV; 48 hours exposure
Method: The finality of this assay is to interrupt the growth of a “in vitro” tumor cell culture by means a continued exhibition of the cells to the sample to be testing. […] Cells are seeded in 96 well microtiter plates, at 5×10^3 cells per well in aliquots of 195 μL medium, and they are allowed to attach to the plate surface by growing in drug free medium for 18 hours. […] Optical densities are read on a automated spectrophotometric plate reader at a single wavelength of 490 nm. […]
Where a SMILES comes first, the peptide text is derived from it. Bridges are numbered along the chain shown (N, C = ends). [ ]: non-standard residue; d: D form. The star is where a group is joined. Bip = N[C@@H](Cc1ccc(-c2ccccc2)cc1)C(=O)O; 2Nal = N[C@@H](Cc1ccc2ccccc2c1)C(=O)O; d(aIle) = CC[C@H](C)[C@@H](N)C(=O)O; d(aThr) = C[C@@H](O)[C@@H](N)C(=O)O; Hexanoyl(5-Me) = CC(C)CCCC(=O)*; Phg = N[C@H](C(=O)O)c1ccccc1; Orn = NCCC[C@H](N)C(=O)O; Dhb = C/C=C(\N)C(=O)O
testReadout: LC50 (concentration causing 50% net cell killing)

compound	result
C/C=C1\NC(=O)[C@H](Cc2ccc3ccccc3c2)NC(=O)[C@@H](C(C)C)NC(=O)[C@@H]([C@@H](C)CC)NC(=O)[C@H](NC(=O)[C@H](NC(=O)[C@H](CCCN)NC(=O)[C@H]2CCCN2C(=O)[C@H](NC(=O)[C@@H](NC(=O)[C@@H](NC(=O)[C@H](NC(=O)CCCC(C)C)C(C)C)[C@@H](C)O)C(C)C)C(C)C)[C@@H](C)CC)[C@@H](C)OC(=O)[C@H](C(C)C)NC1=O [Compound 85, [Nal^3]-KF] ({Hexanoyl(5-Me)}-[dV]TV[dV][dP][Orn][d(aIle)][d(aThr)][d(aIle)][dV][2Nal][Dhb]V; ester 8-C)	169 nM
C/C=C1\NC(=O)[C@H](Cc2cccc(Cl)c2)NC(=O)[C@@H](C(C)C)NC(=O)[C@@H]([C@@H](C)CC)NC(=O)[C@H](NC(=O)[C@H](NC(=O)[C@H](CCCN)NC(=O)[C@H]2CCCN2C(=O)[C@H](NC(=O)[C@@H](NC(=O)[C@@H](NC(=O)[C@H](NC(=O)CCCC(C)C)C(C)C)[C@@H](C)O)C(C)C)C(C)C)[C@@H](C)CC)[C@@H](C)OC(=O)[C@H](C(C)C)NC1=O [Compound 82, [Phe(3-Cl)^3]-KF]	182 nM
C/C=C1\NC(=O)[C@H](Cc2ccc(-c3ccccc3)cc2)NC(=O)[C@@H](C(C)C)NC(=O)[C@@H]([C@@H](C)CC)NC(=O)[C@H](NC(=O)[C@H](NC(=O)[C@H](CCCN)NC(=O)[C@H]2CCCN2C(=O)[C@H](NC(=O)[C@@H](NC(=O)[C@@H](NC(=O)[C@H](NC(=O)CCCC(C)C)C(C)C)[C@@H](C)O)C(C)C)C(C)C)[C@@H](C)CC)[C@@H](C)OC(=O)[C@H](C(C)C)NC1=O [Compound 86, [Bip^3]-KF] ({Hexanoyl(5-Me)}-[dV]TV[dV][dP][Orn][d(aIle)][d(aThr)][d(aIle)][dV][Bip][Dhb]V; ester 8-C)	≥ 6430 nM
C/C=C1\NC(=O)[C@H](c2ccccc2)NC(=O)[C@@H](C(C)C)NC(=O)[C@@H]([C@@H](C)CC)NC(=O)[C@H](NC(=O)[C@H](NC(=O)[C@H](CCCN)NC(=O)[C@H]2CCCN2C(=O)[C@H](NC(=O)[C@@H](NC(=O)[C@@H](NC(=O)[C@H](NC(=O)CCCC(C)C)C(C)C)[C@@H](C)O)C(C)C)C(C)C)[C@@H](C)CC)[C@@H](C)OC(=O)[C@H](C(C)C)NC1=O [Compound 87, [Phg^3]-KF] ({Hexanoyl(5-Me)}-[dV]TV[dV][dP][Orn][d(aIle)][d(aThr)][d(aIle)][dV][Phg][Dhb]V; ester 8-C)	1900 nM
